Cited source: ChEMBL document CHEMBL3991601

# EXPERIMENTAL_TARGET: Serine/threonine-protein kinase TBK1 (Homo sapiens); also: in the data inactive means no Kd found up to 30 µM
# Sequence (Q9UHD2 whole entry): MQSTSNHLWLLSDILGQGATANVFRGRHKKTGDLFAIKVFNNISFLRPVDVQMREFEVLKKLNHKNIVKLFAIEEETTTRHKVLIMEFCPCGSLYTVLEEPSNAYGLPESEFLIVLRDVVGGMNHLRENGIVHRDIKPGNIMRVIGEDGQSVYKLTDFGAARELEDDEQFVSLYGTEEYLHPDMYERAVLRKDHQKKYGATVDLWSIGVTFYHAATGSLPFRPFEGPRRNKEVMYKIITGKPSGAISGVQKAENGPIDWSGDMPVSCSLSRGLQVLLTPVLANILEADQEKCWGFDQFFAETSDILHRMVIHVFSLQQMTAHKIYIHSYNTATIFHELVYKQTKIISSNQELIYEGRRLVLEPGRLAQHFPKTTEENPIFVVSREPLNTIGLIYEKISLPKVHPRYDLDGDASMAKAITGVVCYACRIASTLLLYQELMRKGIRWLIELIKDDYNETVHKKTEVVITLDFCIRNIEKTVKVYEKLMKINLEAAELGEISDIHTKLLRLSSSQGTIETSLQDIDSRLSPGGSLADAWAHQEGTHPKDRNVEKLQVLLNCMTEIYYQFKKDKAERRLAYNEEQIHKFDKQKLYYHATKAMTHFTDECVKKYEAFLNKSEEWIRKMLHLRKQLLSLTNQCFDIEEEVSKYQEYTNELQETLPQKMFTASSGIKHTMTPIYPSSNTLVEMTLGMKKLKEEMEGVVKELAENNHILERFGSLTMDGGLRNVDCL
Calls of active or inactive are those of the source.
# output must be one of Y (active), N (inactive)

Record excerpt, results attached:
{"COMPOUND": "CCS(=O)(=O)c1cccc(-c2cc(C(=O)NC3CCN(C)CC3)c(C)c3[nH]c4ncc(C)cc4c23)c1", "ANSWER_LABEL": "Y"}
{"COMPOUND": "O=C(Nc1cc(C(F)(F)F)cc(C(F)(F)F)c1)c1cc(Cl)ccc1O", "ANSWER_LABEL": "N"}
{"COMPOUND": "C[C@@H](N)c1ccc(C(=O)Nc2ccnc3[nH]ccc23)cc1", "ANSWER_LABEL": "N"}
{"COMPOUND": "Cn1cc(-c2cnc3ccc4ccc(CS(=O)(=O)NCc5ccccn5)cc4c(=O)c3c2)cn1", "ANSWER_LABEL": "N"}

(Q) Any idea what this test logged for CC(C)c1cc(CNc2nc(Nc3cc(C4CC4)[nH]n3)cc(N3CCN(C)CC3)n2)on1 ?
(A) Y
